Data provenance: PubChem BioAssay (EPA / NIEHS)

Read-out: Low-density lipoprotein receptor (LDLR), LDLR (gene 3949)
Experiment Notes: BSK_CASM3C_LDLR: BioMAP Diversity Plus: CASM3C Assay for Low-density lipoprotein receptor (LDLR) Biomarker Activity (AID 2283045);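 note: LDLR protein level on the cell surface quantified by ELISA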
Applied Conditions: primary human coronary artery smooth muscle cells; actives raise or lower the signal
Activity calls are given as the source filed them. Rule for the calls: active = hit-call score of the fitted dose curve at least 0.9, where 1 is the maximum; inactive = score below 0.9.
Hi there, use one of these labels in your reply, thanks! Yes (active), No (inactive)

Dear colleague, could you share the recorded outcome for `O=C1CCCCCCCCCCCCCCO1` when you have a moment?
Yes

Assay result, entry `CCc1c(C)cc(N)c(CC)c1N` — outcome?
No

What outcome does the record of this test show for `CCn1c2ccccc2c2cc(N)ccc21` ?
No

Please state the recorded outcome for this molecule: `Cc1ccc(O)c(C(C)(C)C)c1`
No

What did the test return for `CC(C)Oc1ccccc1O` ?
No

Query: recorded result category for BrC1CCC(Br)C(Br)CCC(Br)C(Br)CCC1Br (stereo unspecified) in this test
No

Identify the outcome logged in this assay for the molecule shown: `CNC[C@H](O)c1cccc(O)c1`
No

Fill in: this test's call for `O=[N+]([O-])c1cc(C(F)(F)F)ccc1Cl` is ___
No

Assay outcome for CCCCC(CC)COCCC#N (stereo unspecified) : what was it?
Yes

Could you kindly confirm the outcome this assay logged for CN(CCOc1ccc(CC2SC(=O)NC2=O)cc1)c1ccccn1 (stereo unspecified) ?
Yes

Hello, I am checking results. What call was entered for `Nc1cc([N+](=O)[O-])ccc1O` ?
No

What outcome does the record of this test show for `CCCCCCCCC=O` ?
No

Please indicate how the test categorized `N#Cc1ccc(CC(=NNC(=O)Nc2ccc(OC(F)(F)F)cc2)c2cccc(C(F)(F)F)c2)cc1` .
No

// outcome(item) with item = `CCCCC/C=C/C=C/C=O`
No

Would you mind telling me which call this test gave `C#C[C@]1(O)CC[C@H]2[C@@H]3CCC4=Cc5oncc5C[C@]4(C)[C@H]3CC[C@@]21C` ?
Yes

Per the assay record, what outcome was assigned to `O=C(O)c1cn(-c2ccc(F)cc2)c2cc(N3CCNCC3)c(F)cc2c1=O` ?
No

What is the recorded call for this molecule in the test? `O=P(c1ccccc1)(c1ccccc1)c1ccccc1`
No

Check the results log: what was the call for `COC(=O)c1ccc(C)cc1` ?
No

Recorded test outcome, item `Cc1cc(C2(c3cc(C)c(O)cc3C)OS(=O)(=O)c3ccccc32)c(C)cc1O`
No

Which outcome did this test record for the molecule `CCCCCCCCCC=O` ?
No

# fetch the recorded call for `Cc1ccc2n[nH]nc2c1` here
No

Look up the recorded call for `CC[Si](OC(C)=O)(OC(C)=O)OC(C)=O` in this test.
No

State the result this test recorded for `CC(=O)O[C@]1(C(C)=O)CC[C@H]2[C@@H]3C[C@H](C)C4=CC(=O)CC[C@]4(C)[C@H]3CC[C@@]21C` .
Yes

For `CC(=O)/C=C/C1=C(C)CCCC1(C)C` , what call appears in the results of this test?
No

What did the test return for `C[C@H]1C[C@@H]2[C@H]([C@@H](O)C[C@@]3(C)[C@H]2CC[C@]3(O)C(=O)CO)[C@@]2(C)C=CC(=O)C=C12` ?
No

Hello, I am checking results. What call was entered for `Cc1ccc(Nc2ccc(O)c3c2C(=O)c2ccccc2C3=O)cc1` ?
No

* * *

Experiment Notes: ATG_ISRE_CIS: Attagene CIS-FACTORIAL HepG2 Assay for human Interferon Regulatory Factor 1 (IRF1) binding to an Interferon-Stimulated Response Element (ISRE) (AID 2282948)
Applied Conditions: HepG2 ISRE cis-reporter (Attagene), mRNA transcription readout; actives raise or lower the signal
Active and inactive are the calls of the source. The calls were made as follows: active = hit-call score of the fitted dose curve at least 0.9, where 1 is the maximum; inactive = score below 0.9.
Assign a class; possible classes are yes for active, no for inactive

In this assay, the call recorded for `CC(C)C[C@H]1C(=O)N2CCC[C@H]2[C@]2(O)O[C@](NC(=O)[C@@H]3C=C4c5cccc6[nH]c(Br)c(c56)C[C@H]4N(C)C3)(C(C)C)C(=O)N12` was what?
yes

Field: outcome | Entry: CC(O)C(C)O (stereo not given)
no

Dear colleague, could you share the recorded outcome for `O=c1oc(=O)c2cc3c(=O)oc(=O)c3cc12` when you have a moment?
no

Called result for `O=S(=O)(O)c1cccc2c(S(=O)(=O)O)cccc12`
no

Returns: the outcome recorded for `C=C(C)C(=O)O` in this assay.
no

Which result was noted for this compound in the test: `CCCCCCOC(=O)CC`
no

Called result for `ClCCCl`
no

Recorded call for CCCCC(CC)COC(=O)/C=C\C(=O)OCC(CC)CCCC (stereo not given) ?
no

Assay result, entry `CC(=O)O[C@]1(C(C)=O)CC[C@H]2[C@@H]3C[C@H](C)C4=CC(=O)CC[C@]4(C)[C@H]3CC[C@@]21C` — outcome?
yes

Which outcome was assigned to CC(c1cc2ccccc2s1)N(O)C(N)=O (stereo not given) in this test?
no

Call for entry `CCCCCCCCC` :
no

What did this assay record as the result for `CN(C)CCOCCN(C)C` ?
no

Outcome? `NCCNCCN`
no

Tell me the recorded outcome of this test for `Cc1ccc2sc3cccc(C)c3c2c1` .
no

Outcome logged for `CCC(=O)OCc1ccccc1` in this assay:
no

Any idea what this test logged for `Cc1ccc2ccccc2n1` ?
no

Hi team, can someone confirm the assay call for `O=C(O)CCCCCCCCCCC(=O)O` ?
no

Per the records of this test, what outcome belongs to `CCCC(=O)C(C)=O` ?
no

How was `CC(C)(C)NC(N)=O` classified in this test?
no

Any idea what this test logged for `CCN(CC)c1ccc2c(-c3ccccc3C(=O)O)c3ccc(=[N+](CC)CC)cc-3oc2c1` ?
yes

Which outcome was entered for the compound `O=C(O)C[C@H](O)C[C@H](O)/C=C/c1c(C2CC2)nc2ccccc2c1-c1ccc(F)cc1` in this test?
no

I'd appreciate the recorded outcome for `O=C(O)c1snc(Cl)c1Cl` from this test.
yes

Which outcome did this test record for the compound `CC(C)c1ccc(C(C)C)cc1` ?
no

Given `CCC/C=C/C=O` , state the outcome it received in this test.
no

Just curious, what result did `OCCCCCO` get here?
no

Given `Cc1ccc(C=O)cc1` , state the outcome it received in this test.
no

Look up the recorded call for `CC(C)(Oc1ccc(CCNC(=O)c2ccc(Cl)cc2)cc1)C(=O)O` in this test.
no

I'd appreciate the recorded outcome for `C=CC(C)(C)O` from this test.
no

// return assay outcome for COC(C)CCO (stereo not given)
no

Called result for `CCc1c(C)cc(N)c(CC)c1N`
no

What is the recorded call for this compound in the test? `CCCCNC(=O)NS(=O)(=O)c1ccc(C)cc1`
no

Please let me know the test result on file for `CC(C)(COC(=O)c1ccccc1)COC(=O)c1ccccc1` .
no

Outcome logged for `CC(C)[C@H]1CC[C@@H](C)CC1=O` in this assay:
no

Record lookup: outcome of this test for `Cc1ccc(C(=O)c2cc(O)c(O)c([N+](=O)[O-])c2)cc1` ?
no

Outcome logged for `CCCCO` in this assay:
no

# fetch the recorded call for `CCCCCCCCCOC(C)=O` here
no

Short answer needed: outcome of this test for CC(C=O)Cc1ccc(C(C)C)cc1 (stereo not given) ?
no

Hello, I am checking results. What call was entered for `O=S(=O)(O)NC1CCCCC1` ?
no

Returns: the outcome recorded for `C=COCCOCCOCCOC=C` in this assay.
no

Test call for this compound, please: `C=C[C@@H](C)CCC=C(C)C`
no

What outcome does the record of this test show for `CCN(CC)c1ccc(C(=C2C=CC(=[N+](CC)CC)C=C2)c2ccc(S(=O)(=O)O)cc2S(=O)(=O)[O-])cc1` ?
no

Assay outcome for `O=C(Oc1ccccc1)c1ccc(O)cc1` : what was it?
no

Test call, this compound: `CC(=O)O[C@H](CC(=O)[O-])C[N+](C)(C)C`
no

Outcome logged for `CCCCCCC#CC(=O)OC` in this assay:
no

Which outcome did this test record for the compound CCCCCCCCCCCCCCCCCC(=O)OCC(CC)CCCC (stereo not given) ?
no

Name the outcome recorded for `O=C(Nc1ccccc1)c1cc([N+](=O)[O-])ccc1Cl` in the assay.
yes

How did this test come out for CC1=CCC2C(C1)C2(C)C (stereo not given) ?
no

What did this assay record as the result for `CSc1nnc(C(C)(C)C)c(=O)[nH]1` ?
no

Which result was noted for this compound in the test: `O=C(O)c1cccc([N+](=O)[O-])c1`
no

Hey, what did the test say about `CC(C)[C@@H]1CC[C@@H](C)CC1=O` ?
no

Returns: the outcome recorded for OC1C(O)C(O)C(O)C(O)C1O (stereo not given) in this assay.
no

Recorded test outcome, item `CCCCCCCCCCN`
no

Recorded test outcome, item `CCc1ccc(C=O)cc1`
no

Per the assay record, what outcome was assigned to `Cc1ccc(O)c(C(C)(C)C)c1` ?
no

For this compound, state the assay outcome: `NC(=O)c1ccccc1Cl`
yes

Tell me the assay call for `CCCCOCCOCCSC#N` please.
no

Hi team, can someone confirm the assay call for CCC(C)CCCC(C)(C)O (stereo not given) ?
no

// param item: `Cc1ccccc1C=O` ; yields the recorded call
no

Hi team, can someone confirm the assay call for `CC(=O)C(C)=O` ?
no

Status in this test for `CCCCCCCCCCCCN(CCCCCCCCCCCC)CCCCCCCCCCCC` ?
no
